- Test system: OVCAR-5 ovarian
- test_protocol: NCI-60 one-dose screen, 48 h (100 = growth as untreated, 0 = no growth, -100 = all killed)
- condition_label: 10 µM
Compounds without any hit were thinned out: in the full panel of roughly 83,000, 20% have a hit.
Each record here notes measured growth.

# compound, assayed_target, growth [%]
data = [
    ("O=C(Nc1ccc(OCc2nnc(-c3ccccc3)o2)c(F)c1)Nc1ccc(Cl)c(Cl)c1", "OVCAR-5 ovarian", 93.4),
    ("COc1cc(/C=C/C(=O)c2cc(-c3ccc(F)cc3)ccc2O)cc(OC)c1OC", "OVCAR-5 ovarian", 97.5),
    ("CC(C)C(C)C(N)C(=O)O (stereo unspecified)", "OVCAR-5 ovarian", 114),
    ("c1ccc(C2CCCCC2)c(OCCCCCN2CCNCC2)c1", "OVCAR-5 ovarian", 93.8),
    ("COc1ccc(-c2[nH]ncc2/C=C/c2cc(C(F)(F)F)[nH]c(=O)n2)cc1", "OVCAR-5 ovarian", 100),
    ("CCCCCCCCCCCC(c1ccccc1)N(C)C (stereo unspecified)", "OVCAR-5 ovarian", 99.2),
]

====

- System: BT-549 breast
- test_protocol: NCI-60 one-dose screen, 48 h (100 = growth as untreated, 0 = no growth, -100 = all killed)
- condition_label: 10 µM
About 83,000 compounds went through this panel and 20% of them were active in at least one assay; those are over-represented in the sample as a whole.

# molecule, measure_unit, growth
data = [
    ("COc1ccc(-c2[nH]ncc2/C=C/c2cc(C(F)(F)F)[nH]c(=O)n2)cc1", "%", 80.4),
    ("CCCCCCCCCCN=C(c1ccc(N(C)C)cc1)c1ccc(N(C)C)cc1", "%", 38.1),
    ("COc1ccc(/C(=C/c2cc(OC)c(OC)cc2[N+](=O)[O-])C(=O)O)cc1", "%", 111),
    ("Cc1ccccc1[P+](Cc1ccccc1)(c1ccccc1)c1ccccc1", "%", 10.3),
    ("S=C(Cc1ccc(-c2ccccc2)cc1)N1CCOCC1", "%", 96.6),
    ("CN1CCN(c2nc(-c3cccnc3)nc3sc4c(c23)CCCCCC4)CC1", "%", 95.3),
    ("O=c1cc(CSc2nnc(-c3ccccc3)n2-c2ccc(F)cc2)c2ccc3ccccc3c2o1", "%", 102),
    ("COc1cc(C2C(C#N)=C(c3c[nH]c4ccccc34)Nc3nc(N)[nH]c(=O)c32)cc(OC)c1OC (stereo unspecified)", "%", 51.6),
    ("S=c1c2ncccc2c(-c2ccccn2)nn1Cc1ccccn1", "%", 79.7),
    ("COc1cc(CSc2nc3ccc(Cl)cc3c(=O)n2Cc2ccccc2)cc(OC)c1OC", "%", 21.7),
    ("C#CCNCCCN1C(=O)c2ccc3c4c(ccc(c24)C1=O)C(=O)N(CCCNCC#C)C3=O", "%", -93.8),
    ("Nc1ccccc1NC(=O)CCCCCCC(=O)Nc1ccc2c(c1)/C(=C/c1ccc[nH]1)C(=O)N2", "%", 22),
    ("COc1cc(Nc2ccnc(N3CCN(c4ccnc5cc(Cl)ccc45)CC3)n2)cc(OC)c1", "%", -4.01),
    ("COc1ccc(C(=O)n2nc(CC(=O)NCc3ccccc3)nc2N)cc1", "%", 102),
    ("CCCCCC(CCC)COC(=O)c1ccc(OC)cc1 (stereo unspecified)", "%", 104),
    ("COc1c(C)c(C)c(OC)c2c1[nH]c(=O)c1c3cccnc3cn21", "%", 124),
    ("O=C(C=P(c1ccccc1)(c1ccccc1)c1ccccc1)c1ccc(Br)cc1", "%", 107),
    ("NCCNc1ccc2cc(-c3nc4ccccc4[nH]3)c(=O)oc2c1", "%", 84.9),
    ("CCNC(=S)NN", "%", 117),
    ("COc1cc(-c2nc3ccccc3[nH]2)ccc1OCc1nnc(-c2ccc(Br)cc2)o1", "%", 98.4),
    ("Cc1ncc([N+](=O)[O-])n1CCOc1ccc(C(=O)/C=C/c2ccc(C(F)(F)F)cc2)cc1", "%", 68.1),
]

====

- Test system: NCI/ADR-RES ovarian
- test_protocol: NCI-60 one-dose screen, 48 h (100 = growth as untreated, 0 = no growth, -100 = all killed)
- condition_label: 10 µM
The panel holds about 83,000 compounds, 20% with a hit somewhere; the sample as a whole holds those more often.
Rule: growth below 80% gives Satisfied, anything at or above gives Not satisfied.

# compound, assigned_category
measured = [
    ("C=CCc1cc(Nc2c3ccc(Cl)cc3nc3ccc(OC)cc23)cc(CN(CC)CC)c1O", "Satisfied"),
    ("O=C(CCCC(=O)N/N=C/c1cc(Cl)ccc1O)N/N=C\\c1cc(Cl)ccc1O", "Satisfied"),
    ("CC(C)/C(=N/O)c1ccccc1", "Not satisfied"),
    ("COc1ccc(C2=Cc3ccc(OC(C)=O)cc3OC2)cc1", "Not satisfied"),
    ("COc1ccc(/C=C2\\SC(=S)N(CCCN3CCOCC3)C2=O)c(OC)c1", "Not satisfied"),
    ("COc1cc(C2C=C(c3ccc(Cl)cc3)N=C3SC(C)=CN32)cc(OC)c1OC (stereo not given)", "Not satisfied"),
    ("CNC(=O)c1cc(Oc2ccc(NC(=O)Nc3ccc(Cl)c(C(C)(C)C)c3)c(F)c2)ccn1", "Satisfied"),
    ("CC(=O)c1c(O)cc2c3c1OC(C)(C)C1CCC(C)(CC31)O2 (stereo not given)", "Not satisfied"),
    ("CC(=O)OC1Oc2ccccc2-c2oc(=O)c(-c3cc(=O)oc4cc(O)ccc34)cc21 (stereo not given)", "Satisfied"),
    ("CCCCNC(=O)Oc1ccc(/C(=C(\\C)c2ccc(OC)cc2)c2ccc(OCCN3CCCCC3)cc2)cc1", "Satisfied"),
]

====

- Tested on: CAKI-1 renal
- test_protocol: NCI-60 one-dose screen, 48 h (100 = growth as untreated, 0 = no growth, -100 = all killed)
- condition_label: 10 µM
The panel holds about 83,000 compounds, 20% with a hit somewhere; the sample as a whole holds those more often.
Label Yes when growth is at or above 80%; otherwise label No.

# compound, assigned_category
rows = [
    ("CCn1nc(-c2ccc(C(=O)OC)cc2)nc2c(=O)n(C)c(=O)nc1-2", "No"),
    ("N#C/C(=C\\N1C(=O)/C(=C/c2cccc([N+](=O)[O-])c2)SC1=S)c1nc2ccccc2s1", "Yes"),
    ("O=C(C=P(c1ccccc1)(c1ccccc1)c1ccccc1)c1ccc(Br)cc1", "Yes"),
    ("CCOc1ccc2c(c1)CC[C@@H]1[C@@H]2CC[C@]2(C)[C@@H](O)[C@@H](O)C[C@@H]12", "Yes"),
    ("CC(C)c1[nH]nc2c(NCc3ccc(-c4ccccn4)cc3)nc(SCCN)nc12", "No"),
    ("Cn1c([N+](=O)[O-])cnc1C=C1C(=O)c2ccccc2C1=O", "No"),
    ("O=c1c2cccc3c(Nc4ccc(Br)cn4)ccc(c32)c2nc3ccccc3n12", "Yes"),
    ("COc1ccccc1CNCCCN1C(=O)c2ccc3c4c(ccc(c24)C1=O)C(=O)N(CCCNCCNCCCN)C3=O", "Yes"),
    ("CC(=O)CS(C)(=O)=O", "Yes"),
    ("CC(C)c1[nH]nc2c(NCc3ccc(-c4ccccn4)cc3)nc(SCCN(C)C)nc12", "No"),
    ("COC(=O)[C@]12CC[C@@H](C)[C@H](C)[C@@H]1C1=CC[C@@H]3[C@@]4(C)CC(=O)[C@H](O)[C@@]5(C)COC(=C45)C[C@@]3(C)[C@]1(C)CC2", "No"),
    ("Cc1ccc(S(=O)(=O)Oc2ccccc2-c2ccccc2)cc1", "No"),
    ("COc1cc(Nc2ccnc(N3CCN(c4ccnc5cc(Cl)ccc45)CC3)n2)cc(OC)c1", "No"),
    ("Cc1ccc(C(=O)O)c(N)c1C", "Yes"),
    ("COc1ccc(C2C=C(c3ccc(Cl)c(Cl)c3)N=C3SC(C)=CN32)cc1OC (configuration not stated)", "No"),
    ("COc1ccc(Cn2cc3c(c2-c2cc(OC)c(OC)c(OC)c2)CCc2cnoc2-3)cc1[N+](=O)[O-]", "No"),
    ("COc1cccc2c1O/C(=C\\c1ncc([N+](=O)[O-])n1C)C2=O", "No"),
    ("CC[C@@]1(C(N)=O)CC2C=CC1C2 (some centres not stated)", "Yes"),
    ("COc1ccc(Cn2cc3c(c2-c2cc(OC)c(OC)c(OC)c2)CCc2cnoc2-3)cc1N", "No"),
    ("CNC(=O)c1cc(Oc2ccc(NC(=O)Nc3ccc(Cl)c(OC(C)C)c3)c(F)c2)ccn1", "No"),
    ("COc1cc(-c2nc3cc(Cl)c(Cl)cc3[nH]2)ccc1OCC(=O)NN", "No"),
    ("CC(C)/C(=N/O)c1ccccc1", "Yes"),
    ("C=CCn1ccc(=O)nc1SC", "Yes"),
    ("Cn1c(N)c(N=Cc2ccccc2)c(=O)n(C)c1=O", "Yes"),
    ("COc1ccc(-c2cc(/C=C3\\C(=O)Nc4cc(Cl)ccc43)[nH]n2)cc1", "No"),
    ("COc1ccc2nc(NC(=O)Nc3c(F)cccc3F)sc2c1", "Yes"),
    ("COc1ccc(C(C)=O)cc1N1C(=O)C2C(C1=O)C1(c3ccccc3)C(=O)C2(c2ccccc2)C(c2ccc(C)cc2)=C1c1ccc(C)cc1 (configuration not stated)", "No"),
    ("COC(=O)c1cnc2c(c1)Oc1ccc(Cl)cc1-c1cc(C)nn1-2", "No"),
    ("Cc1ccc2oc(=O)cc(/C(=C3/C=CC=N3)c3ccc[nH]3)c2c1", "No"),
    ("COc1cc2nc(Sc3sc(N)nc3C)n(-c3ccc(Oc4ccccc4)cc3)c(=O)c2cc1OC", "Yes"),
    ("Nc1nc(SCC#CCCl)c2[nH]cnc2n1", "No"),
    ("CCCC(C)c1ccc(OCCCCCCN2CCNCC2)cc1 (configuration not stated)", "No"),
    ("c1ccc(CNc2nc(Nc3ccc(-c4nc5ccccc5[nH]4)cc3)c3cn[nH]c3n2)cc1", "No"),
    ("O=C(N/N=C\\c1cc(Cl)ccc1O)c1ccncc1", "No"),
    ("C#CCNCCN1C(=O)c2ccc3c4c(ccc(c24)C1=O)C(=O)N(CCNCC#C)C3=O", "No"),
    ("CC1(C)CNC(=O)N1", "Yes"),
    ("COc1ccc(Nc2nc(NCc3ccccc3)c3ccccc3n2)cc1", "No"),
    ("O=C(CCl)N1c2ccccc2Sc2ccc3ccccc3c21", "No"),
    ("Cc1nn2c(/C=C3/C(=O)Nc4ccc(Cl)cc43)c(-c3ccccc3)nc2s1", "No"),
    ("O=C(NCc1cn(Cc2cccc(Oc3ccccc3)c2)nn1)c1cccnc1Nc1ccccc1", "No"),
]
